Provide the reported binding signal of each item.
- studyTarget: Xlp53 (Xenopus laevis, UniProt Q7T1D0 1-362)
- Sequence (Q7T1D0 entry or part of it): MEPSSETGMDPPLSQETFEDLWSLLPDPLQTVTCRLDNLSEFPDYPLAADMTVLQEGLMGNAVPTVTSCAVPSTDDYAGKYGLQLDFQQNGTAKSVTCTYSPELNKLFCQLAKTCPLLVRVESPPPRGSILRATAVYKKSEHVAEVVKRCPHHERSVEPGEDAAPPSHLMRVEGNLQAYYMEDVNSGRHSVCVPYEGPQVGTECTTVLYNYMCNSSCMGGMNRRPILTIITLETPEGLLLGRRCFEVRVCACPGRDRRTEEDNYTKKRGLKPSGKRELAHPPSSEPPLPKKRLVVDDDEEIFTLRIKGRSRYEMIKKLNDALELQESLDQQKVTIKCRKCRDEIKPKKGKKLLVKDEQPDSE
- experimentSummary: anisotropy competition; 25 mM NaPi, 225 mM NaCl, 10% v/v glycerol, 5 mM DTT, 0.2 mg/mL BSA, 22°C; 20 nM labelled DNA; pH not stated for the binding assay
- conditionNotes: protein: recombinant; tags: N-terminal 6xHis-lipoyl-TEV tag, cleaved; chain copies: 4

Prompt: Consider the binder T6C (dsDNA) DNA 1: CGCGGACACGTCCGGACATGTCCCGC DNA 2: GCGGGACATGTCCGGACGTGTCCGCG and give its measured binding signal.
Response: 0.7 ΔlogKd vs ref

Prompt: Consider the binder G2C (dsDNA) DNA 1: CGCGCACATGTCCGGACATGTCCCGC DNA 2: GCGGGACATGTCCGGACATGTGCGCG and give its measured binding signal.
Response: 0.27 ΔlogKd vs ref

Prompt: Consider the binder A3C (dsDNA) DNA 1: CGCGGCCATGTCCGGACATGTCCCGC DNA 2: GCGGGACATGTCCGGACATGGCCGCG and give its measured binding signal.
Response: 0.82 ΔlogKd vs ref

Prompt: Consider the binder A5C (dsDNA) DNA 1: CGCGGACCTGTCCGGACATGTCCCGC DNA 2: GCGGGACATGTCCGGACAGGTCCGCG and give its measured binding signal.
Response: 0.48 ΔlogKd vs ref
